Assay: Human HepG2 cell viability assay in 384 well format
Assay type: toxicity, cell-based
Design: dose 125 nL, time 70.5 hour; concentration not given beside the values
Conditions: HepG2 cells, read-out: Inhibition
The following molecules are shown together with reported cytotoxicity at 70.5 h values.
Numbers only here, please. The scale is %.

For orientation, consider the following solved cases.
MOLECULE: COc1cccc(CN2CCCC2c2cccc(F)c2)c1OC (stereo unspecified)
UNIT_OF_MEASURE: %
cytotoxicity at 70.5 h: -11.8
--
MOLECULE: N#Cc1ccc(C(=O)N2CCn3cc(CN4CCCCC4)nc3C2)cc1
UNIT_OF_MEASURE: %
cytotoxicity at 70.5 h: -11.7
--
MOLECULE: CCc1nc(NC2CCCN(C(=O)c3cccs3)C2)c2cnn(C)c2n1 (stereo unspecified)
UNIT_OF_MEASURE: %
cytotoxicity at 70.5 h: 7.73
--
MOLECULE: COc1cc(N2CCC3(CCCN3Cc3ccn(C)n3)CC2)ncn1
UNIT_OF_MEASURE: %
cytotoxicity at 70.5 h: -3.28
--
MOLECULE: O=C(NCc1nnc2n1CCCC2)N1CCc2sccc2C1
UNIT_OF_MEASURE: %
cytotoxicity at 70.5 h: -4.27

*Q* Could you tell me which cytotoxicity at 70.5 h is on file for "Cn1ccc2ccnc(CC3CN(C(=O)C4CCC(F)(F)CC4)C3)c21" ?
*A* 3.02

*Q* Another molecule: "CC(=O)N1[C@H](Cn2cncn2)C[C@@H]2CN(S(C)(=O)=O)CC[C@@H]21"
*A* -8.6

*Q* Do the same for Cc1ccc(CN2CCOC3(COCCN(S(C)(=O)=O)C3)C2)s1 (stereo unspecified) please
*A* -6.35

*Q* Now consider "CCc1nnc(CN2CCCN(C(=O)c3ccccn3)CC2)o1" .
*A* -10.8

*Q* Let us now turn to "CCOCCC1(CNC(=O)c2ccncc2)CCC1"
*A* -5.08

*Q* Now consider "CCN1C(=O)C2(CCOCC2)c2cc(NC(=O)c3cnoc3C)ccc21" .
*A* -6.08

---

Assay: Human HepG2 cell viability assay in 384 well format
Type: toxicity, cell-based
Design: dose 125 nL, time 70.5 hour; concentration not given beside the values
Details: HepG2 cells, read-out: Inhibition
OBSERVATION_TYPE: cytotoxicity at 70.5 h (%)
Expressed in %, but write only the number.

// known answers, use as guide
MOLECULE: CCc1nnc(SCC(=O)Nc2cc(C(C)(C)C)nn2C)[nH]1
cytotoxicity at 70.5 h / %: -5.12

MOLECULE: CCNC(=O)[C@@H]1C[C@@H](NC(=O)c2ccsc2)CN1CCCSC
cytotoxicity at 70.5 h / %: -3.62

MOLECULE: O=S1(=O)NC(C2CCN(Cc3ccncc3)CC2)Nc2ccccc21 (centres undefined)
cytotoxicity at 70.5 h / %: 23.9

Please look at the following molecule next.
*Q* So what's the measured cytotoxicity at 70.5 h for this one? "CCNC(=O)c1ccc(NC(=O)N(C)Cc2cc(C)on2)c(C)c1"
*A* -5.12

---

Assay: Human HepG2 cell viability assay in 384 well format
Format: toxicity, cell-based
Parameters: dose 125 nL, time 70.5 hour; concentration not given beside the values
Settings: HepG2 cells, read-out: Inhibition
We begin with a simple list: items and their reported cytotoxicity at 70.5 h.
Field: numeric (%). Do not append units.

Before answering, review these 5 worked examples.
COMPOUND: Cc1nn(C)c(C)c1NC(=O)CNC(c1ccc(F)cc1)C1CCC1 (stereo unspecified)
cytotoxicity at 70.5 h, %: -7.04

COMPOUND: Cn1ncc2c(N[C@H]3CCCC[C@@H]3O)nc(C(C)(C)C)nc21
cytotoxicity at 70.5 h, %: -2.77

COMPOUND: O=C1NCCCc2[nH]c(Cc3cccc(Cl)c3)nc21
cytotoxicity at 70.5 h, %: 0.226

COMPOUND: O=C1NC2(CCNCC2)CC1c1ccccc1 (stereo unspecified)
cytotoxicity at 70.5 h, %: 30.9

COMPOUND: COc1cc2c(cc1CNC(=O)Cc1ccc(C)nc1)OC(C)C2 (stereo unspecified)
cytotoxicity at 70.5 h, %: -6.1

Let us examine a further case.
*Q* I would be grateful if you could share the reported cytotoxicity at 70.5 h for CCC1CN(c2cnn(C)c(=O)c2Cl)CCO1 (stereo unspecified) .
*A* 5.82

---

Assay: Human HepG2 cell viability assay in 384 well format
Assay type: toxicity, cell-based
Set-up: dose 125 nL, time 70.5 hour; concentration not given beside the values
Details: HepG2 cells, read-out: Inhibition
OBSERVATION_TYPE: cytotoxicity at 70.5 h (%)
Give the number; % is assumed, so skip it.

The examples below pair each entry with its known result.
COMPOUND: COc1ccc(S(=O)(=O)NC(=O)COC2CCCCC2)cc1
UNIT_OF_MEASURE: %
cytotoxicity at 70.5 h: -7.04
//
COMPOUND: COC(=O)C1CCCN1C(=O)c1ccc(-n2nc(C)cc2C)cc1 (centres undefined)
UNIT_OF_MEASURE: %
cytotoxicity at 70.5 h: -4.44
//
COMPOUND: CS(=O)(=O)CCCNC(=O)C1(c2cccc(Cl)c2)CC1
UNIT_OF_MEASURE: %
cytotoxicity at 70.5 h: -12.8
//
COMPOUND: Cc1noc(C)c1CS(=O)(=O)CC(=O)N1c2ccccc2CC1C (centres undefined)
UNIT_OF_MEASURE: %
cytotoxicity at 70.5 h: -12
//
COMPOUND: CN(C(=O)CCNC(=O)NC1CCCCC1)c1ccccc1
UNIT_OF_MEASURE: %
cytotoxicity at 70.5 h: 38.6
//
COMPOUND: O=C(NCc1ccnc(OCC2CC2)c1)C1COc2ccccc2O1 (centres undefined)
UNIT_OF_MEASURE: %
cytotoxicity at 70.5 h: 0.151
//
COMPOUND: CNC(=O)c1sc(C2CCCC2)nc1C
UNIT_OF_MEASURE: %
cytotoxicity at 70.5 h: -5.12
//
COMPOUND: CC(C(=O)N(Cc1ccc(F)cc1)CC(F)(F)F)S(C)(=O)=O (centres undefined)
UNIT_OF_MEASURE: %
cytotoxicity at 70.5 h: -1.63

*Q* Fill in the blank: the reported cytotoxicity at 70.5 h of "CC(C)NC(=O)NC[C@H]1OC[C@@H](NCc2ccc(F)cc2)[C@@H]1O" is ____.
*A* -4.37

*Q* Would you kindly repeat that for "CCN(CC)S(=O)(=O)c1csc(C(=O)N2CCC(C(N)=O)CC2)c1" ?
*A* -2.86

*Q* Also "O=C(Nc1nnn[nH]1)c1ccc(I)c(F)c1" , if possible.
*A* 4.13

*Q* Record: CCn1ncc(CN2CCCC(n3c(=O)oc4ccccc43)C2)c1C (centres undefined)
*A* -3.68

*Q* Same lookup for Cc1cc(C(F)(F)F)nc(C2CCCN2S(C)(=O)=O)n1 (centres undefined) , please.
*A* 1.14

*Q* Another: "CCc1ccc(C(=O)N2CCN(CCO)CC2)o1"
*A* -1.18

*Q* Another: "CCOC(=O)[C@H]1CNC[C@@H]1C(=O)OCC"
*A* 3.89

*Q* What do we get for "COc1cc2nc(C)n(CC(=O)NCCCO)c(=O)c2cc1OC" ?
*A* -10.5

*Q* What do you have for Cc1nc(CN(Cc2cccs2)C2CCS(=O)(=O)C2)oc1C (centres undefined) ?
*A* -16

*Q* Param item: "CNC(=O)C(C)(C)N1CCC[C@H]1C(=O)NCC1CC1"
*A* 9.57

---

Assay: Human HepG2 cell viability assay in 384 well format
Format: toxicity, cell-based
Design: dose 125 nL, time 70.5 hour; concentration not given beside the values
Conditions: HepG2 cells, read-out: Inhibition
cytotoxicity at 70.5 h reference
All answers are understood in %, so give the number only.

A selection of reference data follows.
COMPOUND: CC(C)(C)c1noc(OCC(=O)NC2CCCC2)n1
UNIT_OF_MEASURE: %
cytotoxicity at 70.5 h: 0.264
//
COMPOUND: Cc1csc(CN(C)C(C)C(=O)N2CCc3ccccc3C2)n1 (centres undefined)
UNIT_OF_MEASURE: %
cytotoxicity at 70.5 h: 11.5
//
COMPOUND: CSc1ccc(-c2nc(CN3CCC(NC(C)=O)C3)c(C)o2)cc1 (centres undefined)
UNIT_OF_MEASURE: %
cytotoxicity at 70.5 h: -1.58
//
COMPOUND: COCCCNC(=O)c1cc(C(C)C)nc(N2CCCCCC2)n1
UNIT_OF_MEASURE: %
cytotoxicity at 70.5 h: -8.22
//
COMPOUND: COc1ccc(C(N)=O)cc1NCc1nc(-c2cccs2)oc1C
UNIT_OF_MEASURE: %
cytotoxicity at 70.5 h: -102
//
COMPOUND: Cc1cc(NC(=O)CN2CCn3c(nnc3C(C)C)C2)no1
UNIT_OF_MEASURE: %
cytotoxicity at 70.5 h: 67.5
//
COMPOUND: Cc1cccc(C(C(=O)N(C)Cc2ccco2)N(C)C)c1 (centres undefined)
UNIT_OF_MEASURE: %
cytotoxicity at 70.5 h: 2.2
//
COMPOUND: CCn1nnc2c1C(COCC(=O)N(C)C)CN(Cc1ccoc1)C2 (centres undefined)
UNIT_OF_MEASURE: %
cytotoxicity at 70.5 h: -0.882

We next turn to a different compound, shown below.
*Q* Find the recorded cytotoxicity at 70.5 h belonging to "CC(C)Cn1cc(NC(=O)NC(C)(C)c2nccs2)cn1" and report it.
*A* -6.56
